Values were extracted from paper PMC12025923.

Target: T1, wild-type 14-3-3γ-nLuc (His6-14-3-3γ-nLuc) (human, UniProt P61981 2-247)
T1 chain: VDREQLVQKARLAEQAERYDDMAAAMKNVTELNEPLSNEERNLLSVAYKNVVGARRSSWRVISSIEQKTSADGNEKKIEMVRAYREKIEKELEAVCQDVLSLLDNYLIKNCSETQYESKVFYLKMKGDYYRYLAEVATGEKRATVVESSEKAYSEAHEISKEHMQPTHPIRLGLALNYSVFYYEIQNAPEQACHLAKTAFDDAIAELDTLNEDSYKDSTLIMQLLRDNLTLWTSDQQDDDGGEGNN
Assay: degarelix 1 uM
Primed or numbered codes have the meaning given here. Where no end group is shown, it is not given here. [ ]: non-standard residue; d: D form. FITC′ = fluorescein isothiocyanate label at the N-terminus; pS = N[C@@H](COP(=O)(O)O)C(=O)O
The following binders are listed with their measured pKd values.
Please express pKd as -log10 of the molar concentration.

Could you please provide reported pKd for {FITC′}-MPTPDATTPQAKGFRRAV[pS]ELDAKQAEAIMSPRFIGRRQSLIE (also called phosphopeptide derived from tyrosine hydroxylase (TH); source: synthetic peptide (AbClonal)) [FITC-pTH] ? Thanks!
7.44

Let us move to another entry and its pKd.
Could you please provide reported pKd for {FITC′}-QRHSN[pS]LGPIFDGSGGGSGIKARAS[pS]SPVILVGTHLD (leucine-rich repeat kinase 2 (LRRK2), human; also called FITC-LRRK2; source: synthetic peptide (AbClonal)) [FITC-ppLRRK2] ? Thanks!
9.05
